# assayProcedure: amyloid nucleation score (Sup35N fusion, yeast selection) (log enrichment); library NNK3; higher = more nucleation; inactive = no reads after selection;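 further: zero at mode of non-aggregating sequences after 7 days selection at 30°C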

substance	amyloid nucleation score
LLMLTEQ	inactive
PFSYDLRNFNSWQIGNGGLM	inactive
SPGGLGFSVNLHCSTYFRPS	1.24
YKGFKRIGLEGQFVSSYLFY	inactive
MSVQHER	inactive
SVSLLLRFVILLCTFVQYGW	inactive
LIVLVMHKLYKLWSGRLRVV	inactive
PHHSRYAFYGNPTLAI	inactive
QDYGYFNTYQFVRKWSSISL	inactive
SEKPIFSHPNLIYENGIGWI	inactive
KPVFYGPIRCFISVCI	1.84
MYTLCQMLNVRTRDMTCVTR	inactive
SLNNYFYSTNYETSFTLD	inactive
FGVSSP	inactive
SRRSCYVIAYELV	inactive
RFMFSLFMNEGNMLHMLRRV	inactive
LVVGISRPMSTGSMASWQWR	inactive
TPYILLG	inactive
SNPHIILID	inactive
YWVLRFRSSCGYSRMRLGPR	inactive
YDGQMVRVRLYPSWEQVYCV	-1.1
MNGDSAMWFSISS	inactive
IFNQLDLFCDRTLDGLRDAK	inactive
SVHWEVRFYMDRYVLAYAVT	inactive
IFCVGVSLRQ	0.347
SRCFLKKYCFLMTSILVRGI	inactive
CFLVNQ	inactive
LYLRQKYLRALTNFNFPRAT	inactive
SVSLAHFGSRKLVFSG	inactive
CGNHASVWRIGTVRKD	inactive
RDYAFNPMFCCATNAKFMKG	1.96
SSNYNLKTLNSISRFFDLES	inactive
IDIVNL	inactive
CMYILFINVCMATGANYGSY	1.58
LIYILWH	inactive
RLAGCYYIP	inactive
HRYYCRLVFVEQTRDNIQPW	inactive
CWFKLMLASMIKENTLSTYG	inactive
FWYSYQ	inactive
GDVLLY	inactive
SCFCMKLSLFYGAIN	0.675
WYSNLMCTWISDDKTWQRIR	inactive
LARDYSFATHSGLRRKSLKQ	inactive
YTWDVGHLKNSSSVYWKLLR	inactive
LDNDSWTRGLRGYLTYLRER	inactive

====

As shown below, each of these substances has a reported amyloid nucleation score value.
# assayProcedure: amyloid nucleation score (Sup35N fusion, yeast selection) (log enrichment); library NNK2; higher = more nucleation; inactive = no reads after selection

substance	amyloid nucleation score
ARGGKLLSCFCSGWRLDHVR	9.96
VIEIWSN	-0.531
LSVTPIFGRNTDTLESGL	-0.093
MFGGPTFNMRWFFTFFSRGR	4.46

====

# assayProcedure: amyloid nucleation score (Sup35N fusion, yeast selection) (log enrichment); library NNK3; higher = more nucleation; inactive = no reads after selection
parameter: amyloid nucleation score

substance	parameter	result
RVTIVPTKHHLML	amyloid nucleation score	inactive
YAPFWS	amyloid nucleation score	inactive
NFLFISYYVPGQCTV	amyloid nucleation score	inactive
LYSECNDPNKA	amyloid nucleation score	inactive
PFGWSVLGTGASGAEIQLVE	amyloid nucleation score	inactive
KTKFVTSLNFTVHFKCWNCD	amyloid nucleation score	1.51
GSGGYWFMINVPENKIWVYL	amyloid nucleation score	1.72
KQVTVNTLMSPPVRYL	amyloid nucleation score	inactive
LGGLCL	amyloid nucleation score	inactive
FGWVFLYDKLIPVKPFELYF	amyloid nucleation score	inactive
AIDHSFT	amyloid nucleation score	inactive
NYFYRPYSEDSVITQMIVVV	amyloid nucleation score	inactive
NLLSLVFIRWGNYRRFKMFR	amyloid nucleation score	0.77
LYWMVSMTTDR	amyloid nucleation score	inactive
PGTIYVGCRLLIYGTNTADL	amyloid nucleation score	inactive
VWVFYWDKLRKF	amyloid nucleation score	inactive
PVHSFNLAIYMRLFHVWPVF	amyloid nucleation score	inactive
WSPKTLLM	amyloid nucleation score	inactive
